details: [M+H]+; instrument: TW
value_kind: collision cross section (N2) (Å²)

| molecule | unit_label | measured_result |
| --- | --- | --- |
| O=C(NC(=O)c1c(F)cccc1F)Nc1ccc(Oc2ccc(C(F)(F)F)cc2Cl)cc1F | Å² | 204.46 |
| Nc1ccc(S(=O)(=O)Nc2ncccn2)cc1 | Å² | 148.7 |
| c1ccc2[nH]c(-c3cscn3)nc2c1 | Å² | 136.19 |
| CCn1cc(C(=O)O)c(=O)c2cc3c(cc21)OCO3 | Å² | 147.8 |
| CON(C)C(=O)Nc1ccc(Cl)cc1 | Å² | 142.9 |
| CCOP(=S)(OCC)Oc1cnc2ccccc2n1 | Å² | 165.1 |
| CSC1=N[C@@](C)(c2ccccc2)C(=O)N1Nc1ccccc1 | Å² | 171.15 |
| O=C(NC(=O)c1c(F)cccc1F)Nc1cc(Cl)c(OC(F)(F)C(F)C(F)(F)F)cc1Cl (configuration not stated) | Å² | 198.53 |
| Cc1noc(NS(=O)(=O)c2ccc(N)cc2)c1C | Å² | 157.4 |
| CC(C)c1cc(Oc2ccccc2)cc(C(C)C)c1NC(=S)NC(C)(C)C | Å² | 199.75 |
| Cc1cc(C)nc(NS(=O)(=O)c2ccc(N)cc2)n1 | Å² | 159.7 |
| CN(C)[C@@H]1C(O)=C(C(N)=O)C(=O)[C@@]2(O)C(O)=C3C(=O)c4c(O)cccc4[C@@](C)(O)[C@H]3[C@H](O)[C@@H]12 | Å² | 202.3 |
| CCc1nn(C)c(C(=O)NCc2ccc(C(C)(C)C)cc2)c1Cl | Å² | 191.25 |
| CO/C=C(/C(=O)OC)c1ccccc1Oc1cc(Oc2ccccc2C#N)ncn1 | Å² | 195.75 |
| CC(C)NCC(O)COc1cccc2[nH]c3ccccc3c12 (configuration not stated) | Å² | 165.5 |
| CC1CCc2cc(F)cc3c(=O)c(C(=O)O)cn1c23 (configuration not stated) | Å² | 147.6 |
| OC(Cn1cncn1)(c1ccc(F)cc1)c1ccccc1F (configuration not stated) | Å² | 163.97 |
| CON(C)C(=O)Nc1ccc(Br)c(Cl)c1 | Å² | 152.25 |
| C=CCOC(=O)C(C)(C)OC(=O)c1cc(-n2c(=O)cc(C(F)(F)F)n(C)c2=O)ccc1Cl | Å² | 208.59 |
| CNC(=O)Oc1cccc(N=CN(C)C)c1 [Formetanate] | Å² | 153.76 |
| C=C1C[C@@]23CC[C@H]4[C@@](C)(CCC[C@@]4(C)C(=O)O[C@@H]4O[C@H](CO)[C@@H](O)[C@H](O)[C@H]4O)[C@@H]2CC[C@]1(O[C@@H]1O[C@H](CO)[C@@H](O)[C@H](O)[C@H]1O[C@@H]1O[C@@H](C)[C@H](O)[C@@H](O)[C@H]1O)C3 [Dulcoside A] | Å² | 270.75 |
| CC(CCc1ccc(O)cc1)NCC(O)c1ccc(O)cc1 (configuration not stated) | Å² | 168.9 |

----------
details: [M+Na]+; instrument: DT; stepped-field

| compound_structure_string | unit_label | collision cross section (N2) |
| --- | --- | --- |
| CCCCC/C=C\C/C=C\C/C=C\C/C=C\CCCCCC(=O)O[C@H](COC(=O)CCCCCCCCCCCCCCCC)COP(=O)(O)OCCN | Å² | 292.8 |
| CC/C=C\C/C=C\C/C=C\C/C=C\C/C=C\CCCC(=O)OC[C@H](COP(=O)([O-])OCC[N+](C)(C)C)OC(=O)CCC/C=C\C/C=C\C/C=C\C/C=C\C/C=C\CC | Å² | 301.5 |
| CCCC=CCC=CCC=CCC=CCC=CCC(=O)OC[C@H](COP(=O)(O)OCC[N+](C)(C)C)OC(=O)CC=CCC=CCC=CCC=CCC=CCCC | Å² | 295.9 |

----------
details: [M+H]+; instrument: TW; calibrated with polyalanine and drug standards
value_kind: collision cross section (N2) (Å²)

| compound | value_kind | unit_label | measured_result |
| --- | --- | --- | --- |
| Cc1occc(=O)c1O | collision cross section (N2) | Å² | 117.7 |
| N[C@@H](Cc1ccc(O)c(O)c1)C(=O)O | collision cross section (N2) | Å² | 145.4 |
| Cc1cc2c(cc1S(N)(=O)=O)S(=O)(=O)CCC2 | collision cross section (N2) | Å² | 159.4 |
| CC(=O)Nc1ccc(O)cc1 | collision cross section (N2) | Å² | 129.7 |
| CCC(=O)c1c(O)cc(O)cc1O | collision cross section (N2) | Å² | 134.3 |
| C[C@H]1[C@H]2CC[C@H]3[C@@H]4CC=C5C[C@@H](N(C)C)CC[C@]5(C)[C@H]4CC[C@]23CN1C | collision cross section (N2) | Å² | 195.4 |
| CCC(=O)O[C@]1(C(=O)CCl)[C@@H](C)C[C@H]2[C@@H]3CCC4=CC(=O)C=C[C@]4(C)[C@@]3(F)[C@@H](O)C[C@@]21C [CLOBETASOL PROPIONATE] | collision cross section (N2) | Å² | 205.1 |
| O=C(O)c1ccccc1 | collision cross section (N2) | Å² | 122.2 |
| Cc1ncc([N+](=O)[O-])n1CC(C)O (stereo not given) | collision cross section (N2) | Å² | 135.2 |
| CC1=CCc2c(cc3oc(C)cc(=O)c3c2O)OC1 | collision cross section (N2) | Å² | 153.5 |
| NC(=O)N/N=C/c1ccc([N+](=O)[O-])o1 | collision cross section (N2) | Å² | 138.6 |
| [O-][n+]1cccc(CO)c1 [MEPIROXOL] | collision cross section (N2) | Å² | 120.4 |
| CC1(C)C2CC(=O)[C@]3(C)C(CC[C@@]4(C)[C@H](c5ccoc5)OC(=O)[C@H]5O[C@]543)[C@@]2(C)C(=O)C[C@H]1O (stereo not given in full) | collision cross section (N2) | Å² | 199.7 |
| COc1ccc2c(c1)=NC1=C(C)NCCC=21 | collision cross section (N2) | Å² | 146.2 |
| O=c1cc(-c2ccccc2)oc2cccc(O)c12 | collision cross section (N2) | Å² | 147.3 |

----------
details: [M-H]-; instrument: DT; single field, calibrated with Agilent tune mix (Agilent)
Label criterion met when collision cross section (N2) is strictly below 200 Å²; otherwise label criterion not met.

| molecule | qualitative_label |
| --- | --- |
| CC(=O)N[C@H]1[C@@H](OP(=O)(O)OP(=O)(O)OC[C@H]2O[C@@H](n3ccc(=O)[nH]c3=O)[C@H](O)[C@@H]2O)O[C@H](CO)[C@@H](O)[C@@H]1O [UDP-N-acetylglucosamine] | criterion not met |
| Cn1c(=O)[nH]c2[nH]c(=O)[nH]c2c1=O [1-Methyluric acid] | criterion met |
| C[C@]12CC[C@@H]3c4ccc(O)cc4CC[C@H]3[C@@H]1CCC2=O [Estrone] | criterion met |
| C=CC1=C(C)C(/C=c2\[nH]/c(=C\c3[nH]c(/C=C4\NC(=O)C(C)=C4C=C)c(C)c3CCC(=O)O)c(CCC(=O)O)c2C)=NC1=O [Biliverdin] | criterion not met |
| O=C(O)CNC(=O)Cc1ccccc1 [Phenylacetylglycine] | criterion met |
| C[C@]12CC[C@@H]3c4ccc(OS(=O)(=O)O)cc4CC[C@H]3[C@@H]1CCC2=O [Estrone 3-sulfate] | criterion met |
| CN(C)c1nc(=O)c2ncn([C@@H]3O[C@H](CO)[C@@H](O)[C@H]3O)c2[nH]1 [N2,N2-Dimethylguanosine] | criterion met |
| CC(C)CC[C@@H](O)[C@@H](C)[C@H]1CC[C@H]2[C@@H]3CC=C4C[C@@H](O)CC[C@]4(C)[C@H]3CC[C@]12C [22beta-Hydroxycholesterol] | criterion not met |
| CCCCC/C=C\C/C=C\CCCCCCCC(=O)O [Linoleic acid] | criterion met |
| O=c1[nH]cc(CO)c(=O)[nH]1 [5-Hydroxymethyluracil] | criterion met |
| Nc1nc(=O)c2ncn([C@@H]3O[C@H](COP(=O)(O)OP(=O)(O)O[C@H]4O[C@H](CO)[C@@H](O)[C@H](O)[C@@H]4O)[C@@H](O)[C@H]3O)c2[nH]1 [Guanosine diphosphate mannose] | criterion not met |
| Nc1nc(=O)c2ncn([C@@H]3O[C@H](COP(=O)(O)OP(=O)(O)O[C@H]4O[C@H](CO)[C@@H](O)[C@H](O)[C@H]4O)[C@@H](O)[C@H]3O)c2[nH]1 [GDP-glucose] | criterion not met |
| CC/C=C\C/C=C\C/C=C\C/C=C\C/C=C\CCCC(=O)O [Eicosapentaenoic acid] | criterion met |
| CCCCCCCCCCCC(=O)SCCNC(=O)CCNC(=O)[C@H](O)C(C)(C)COP(=O)(O)OP(=O)(O)OC[C@H]1O[C@@H](n2cnc3c(N)ncnc32)[C@H](O)[C@@H]1OP(=O)(O)O [Lauroyl-CoA] | criterion not met |
| OC[C@@H](O)[C@H](O)[C@H](O)[C@@H](O)CO [Dulcitol] | criterion met |
| CC(=O)N[C@H]1C(O)O[C@H](COP(=O)(O)O)[C@@H](O)[C@@H]1O (stereo partly drawn) [N-Acetyl-D-Glucosamine 6-Phosphate] | criterion met |
| CCCCCCCCCCCCCCCC=O [Palmitaldehyde] | criterion met |
| Cn1cnc2c1c(=O)[nH]c(=O)n2C [Theobromine] | criterion met |
| COc1cc(/C=C/CO)cc(OC)c1O [Sinapyl alcohol] | criterion met |
| Cn1c(=O)[nH]c2ncn(C)c2c1=O [1,7-Dimethylxanthine] | criterion met |
